The reported measurements were obtained from patent US20240132578A1.

- Measured target: HIV-1 Env of isolate 6535.3 (subtype B) (HIV-1)
- Assay overview: cell-based or functional assay
Test readout: IC50 (µg/mL), pseudovirus neutralization

Binder	Test readout	Measurement units	Result modifier	Numeric readout
PGT-131 (antibody, V domains shown) VH: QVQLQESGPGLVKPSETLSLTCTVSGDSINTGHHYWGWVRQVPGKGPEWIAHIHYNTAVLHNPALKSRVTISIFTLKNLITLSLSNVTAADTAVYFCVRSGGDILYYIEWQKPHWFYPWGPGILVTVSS VL: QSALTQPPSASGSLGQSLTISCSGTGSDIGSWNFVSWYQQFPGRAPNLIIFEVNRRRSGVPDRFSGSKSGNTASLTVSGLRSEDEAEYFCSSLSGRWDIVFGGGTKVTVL	IC50 (µg/mL), pseudovirus neutralization	µg/mL	=	0.056
PGT-130 (antibody, V domains shown) VH: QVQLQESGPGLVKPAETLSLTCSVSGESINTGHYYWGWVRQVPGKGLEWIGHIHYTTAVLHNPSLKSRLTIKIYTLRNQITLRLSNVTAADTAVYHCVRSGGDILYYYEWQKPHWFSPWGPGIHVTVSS VL: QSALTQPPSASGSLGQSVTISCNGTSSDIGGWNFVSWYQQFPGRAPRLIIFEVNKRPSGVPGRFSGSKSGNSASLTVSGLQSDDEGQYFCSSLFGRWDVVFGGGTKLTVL	IC50 (µg/mL), pseudovirus neutralization	µg/mL	=	0.031
PGT-136 (antibody, V domains shown) VH: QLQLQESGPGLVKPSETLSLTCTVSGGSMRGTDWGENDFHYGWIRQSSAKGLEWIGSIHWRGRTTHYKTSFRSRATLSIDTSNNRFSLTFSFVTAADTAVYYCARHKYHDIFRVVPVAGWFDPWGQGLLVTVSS VL: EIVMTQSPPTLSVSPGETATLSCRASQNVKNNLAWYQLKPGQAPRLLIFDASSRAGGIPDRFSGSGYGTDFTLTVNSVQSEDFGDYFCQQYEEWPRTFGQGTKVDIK	IC50 (µg/mL), pseudovirus neutralization	µg/mL	>	50
